# Tested on: MCF7 breast
# assay_method_text: NCI tumour cell line growth inhibition, 48 h
observable: TGI

Some molecules with recorded TGI:
>>> test_value("COC(=O)/C=C/c1ccc2c(c1)CCC2")
"> 100 µM"
>>> test_value("C/C=C(\\C)C(=O)N[C@H]1CC[C@]2(C)C3CC[C@@]4(C)C(CC[C@@H]4C(C)N(C)C)C3CCC2[C@H]1OC(C)=O (stereo not given in full)")
"2.92 µM"
>>> test_value("CC1C(=O)OC2CC[N+]3(CC(=O)c4ccc(Br)cc4)CC=C(COC(=O)C(C)(O)C1(C)O)C23 (stereo not given)")
"> 375 µM"
>>> test_value("Cc1cc(NC(=S)Nc2ccccc2)c(NC(=S)Nc2ccccc2)cc1C")
"98.6 µM"

Q: Recorded TGI of CC(C)=CCC[C@@H](C)C1=C(O)C(Nc2ccccc2Br)=C(C)C(=O)C1=O , please.
A: 39.7 µM

Q: Recorded TGI of CCN(CC)CC(=O)Nc1c(C(N)=O)nnn1Cc1cc(Cl)c(C(=O)c2ccc(Cl)cc2)c(Cl)c1 , please.
A: 32.4 µM

Q: Recorded TGI of C#CCOC(=O)c1ccccc1O , please.
A: > 100 µM

Q: Recorded TGI of C1=Cc2ccccc2Nc2ccccc21 , please.
A: > 100 µM

Q: Recorded TGI of Oc1ccc(-c2nnc3sc(-c4ccc(F)c(Oc5ccccc5)c4)nn23)cc1 , please.
A: > 100 µM

Q: Recorded TGI of COc1cc(C2c3cc4c(cc3OC(NC3CCCCC3)C2C)OCO4)cc(OC)c1OC (stereo not given) , please.
A: > 100 µM

* * *

Listed here are molecules together with their documented TGI.
# Test system: COLO 205 colon
# assay_method_text: NCI tumour cell line growth inhibition, 48 h
Response body: numeric value in µM, unit text excluded.

>>> test_value("N#Cc1c(-c2ccc(Cl)cc2)cc(-c2ccc(Nc3ccnc4cc(C(F)(F)F)ccc34)cc2)[nH]c1=O")
59.4

Q: Recorded TGI of O=S1c2ccccc2N=C(c2ccc3ccccc3c2)CC1C1=CC=CCC1 (stereo not given) , please.
A: 37.9

* * *

Listed here are molecules together with their documented GI50.
# Tested on: SR leukemia
# assay_method_text: NCI tumour cell line growth inhibition, 48 h

Some molecules with recorded GI50:
>>> test_value("C=C1C(=O)O[C@H]2[C@H]1CC/C(COC(=O)CCCCC(=O)OC/C1=C/CC[C@@]3(C)O[C@H]3[C@H]3OC(=O)C(=C)[C@@H]3CC1)=C\\CC[C@@]1(C)O[C@@H]21")
"584 nM"
>>> test_value("CC1CC2(C)ON=C(c3ccccc3)N2c2ccccc2S1 (stereo unspecified)")
"34600 nM"
>>> test_value("CC1=C[C@H]2c3c(c(O)c(O)c4oc5c(C)cccc5c(=O)c34)[C@H](c3cc(O)c(O)c4oc5c(C)cccc5c(=O)c34)[C@H]2C(C)(C)C1")
"720 nM"
>>> test_value("Cc1cc(N2CCCCC2)nc(N(CCCNc2ccnc3cc(Cl)ccc23)Cc2ccco2)n1")
"1690 nM"
>>> test_value("O=C(Nc1ccccc1O)c1cccc(NC2=C(Cl)C(=O)N(Cc3ccccc3)C2=O)c1")
"583 nM"

Q: Recorded GI50 of CCCN(CCC)C(=O)C1=Cc2ccc(-c3ccc(C(=O)N4CCCC4)cc3)cc2N=C(N)C1 , please.
A: 4210 nM

Q: Recorded GI50 of CN(C)c1ccc(N2Cc3ccccc3OC3=C2C(=O)c2c(O)ccc(O)c2C3=O)cn1 , please.
A: 127 nM

Q: Recorded GI50 of Oc1ccc(-c2nnc3sc(-c4ccc(F)c(Oc5ccccc5)c4)nn23)cc1 , please.
A: 29900 nM

Q: Recorded GI50 of COc1ccc2c(c1)c(-c1ccc(-c3cn(S(=O)(=O)c4ccccc4)c4ccc(OC)cc34)s1)cn2S(=O)(=O)c1ccccc1 , please.
A: > 100000 nM

Q: Recorded GI50 of COc1cc(NS(C)(=O)=O)ccc1Nc1c2ccc(Cl)cc2nc2c(OC)cccc12 , please.
A: < 10.9 nM

Q: Recorded GI50 of CC1=CC(=NC(=O)CBr)C=C/C1=N\S(=O)(=O)c1ccccc1 , please.
A: 3410 nM

// data source = PubChem BioAssay (NCI)
